Measured values drawn from ChEMBL document CHEMBL1153444 for this set.

# tgt: Human immunodeficiency virus type 1 integrase (Human immunodeficiency virus 1)
# experiment: Inhibition of HIV1 integrase at 20 uM
# Set-up: scale not given: the % may be the effect or the level left
measure: Activity

Below: 2 compounds and their reported Activity.
structure-notation	tgt	Activity
COc1ccc(NC(=S)Nc2ccc3ccccc3c2)cc1	Human immunodeficiency virus type 1 integrase (Human immunodeficiency virus 1)	< 20%
Cc1ccccc1NC(=S)Nc1ccc2c(c1)C(=O)OC2	Human immunodeficiency virus type 1 integrase (Human immunodeficiency virus 1)	< 20%

The record that follows has no Activity shown yet.
Name the recorded Activity of the compound listed here: COc1ccc(NC(=S)Nc2ccc3c(c2)C(=O)OC3)cc1
< 20%
